Catalogue of Max MFI readings, one per entry.
# ASSAY_TARGET: T1, human PD-1 expressed on cells (human, UniProt Q15116 25-288)
# T1 construct: whole, on cells; cell line named under assay; also called CHO-S hPD-1; Raji PD-1
# T1 sequence (Q15116 25-288): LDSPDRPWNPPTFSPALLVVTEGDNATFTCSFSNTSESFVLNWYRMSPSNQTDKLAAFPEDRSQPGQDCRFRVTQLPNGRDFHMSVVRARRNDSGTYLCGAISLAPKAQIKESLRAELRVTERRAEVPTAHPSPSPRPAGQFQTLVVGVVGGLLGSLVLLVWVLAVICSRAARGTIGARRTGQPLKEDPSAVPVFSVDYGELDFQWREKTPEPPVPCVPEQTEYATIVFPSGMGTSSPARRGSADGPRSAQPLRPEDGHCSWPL
# PROTOCOL_TEXT: flow cytometry, CHO-S hPD-1
Numeric only. Scale: MFI

Reference set (2 entries):
- XVT458-z2-m4 (antibody, V domains shown, IgG format; also called z2_XVT458m4) VH: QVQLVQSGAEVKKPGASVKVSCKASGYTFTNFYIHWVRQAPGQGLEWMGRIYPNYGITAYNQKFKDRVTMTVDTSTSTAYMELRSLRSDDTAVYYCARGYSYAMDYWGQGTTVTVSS VL: DIQMTQSPSSVSASVGDRVTITCSASQGISGDLNWYQQKPGKAPKLLIYHTSSRHSGVPSRFSGSGSGTDFTLTISSLQPEDFATYYCQGYSKDLLTFGGGTKLEIK: 43400
- XVT458-z2-m2 (antibody, V domains shown, IgG format; also called z2_XVT458m2) VH: QVQLVQSGAEVKKPGASVKVSCKASGYTFTNFYIHWVRQAPGQGLEWMGRIYPNYGFTAYNQKFKDRVTMTVDTSTSTAYMELRSLRSDDTAVYYCARGYSYAMDYWGQGTTVTVSS VL: DIQMTQSPSSVSASVGDRVTITCSASQGIYGDLNWYQQKPGKAPKLLIYHTSSLHSGVPSRFSGSGSGTDFTLTISSLQPEDFATYYCQAYSKDLLTFGGGTKLEIK: 42800

Exam item: Suppose we examine the binder z2-XVT458 (antibody, IgG1, V domains shown, full hIgG1; also called XVT458-z2; GH + T071V) VH: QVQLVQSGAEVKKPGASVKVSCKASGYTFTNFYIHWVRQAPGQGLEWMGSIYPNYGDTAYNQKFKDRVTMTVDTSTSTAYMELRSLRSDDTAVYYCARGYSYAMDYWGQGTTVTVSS VL: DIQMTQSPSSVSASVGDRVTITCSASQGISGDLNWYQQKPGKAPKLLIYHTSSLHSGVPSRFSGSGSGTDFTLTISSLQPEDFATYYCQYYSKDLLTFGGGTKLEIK ; what Max MFI value has been reported?
Marked response: 40700
